- Measurement Notes: LD50 (acute toxicity)
- Condition Notes: rat, in vivo, po; rats, per os; read-out: LD50 os
Outcome Measure: LD50
The answer consists of two parts: a number and, after it, its unit.

(Q) What does the record list as LD50 for CO[C@]12C[C@@H](CCNc3ncc(Br)cn3)CN(C)[C@@H]1Cc1cn(C)c3cccc2c13 ?
(A) 200 mg/kg

(Q) What does the record list as LD50 for CO[C@]12C[C@@H](CCNc3ncc([N+](=O)[O-])cn3)CN(C)[C@@H]1Cc1cn(C)c3cccc2c13 ?
(A) 150 mg/kg

(Q) What does the record list as LD50 for CN1C[C@H](CCNc2ncccn2)C[C@@H]2c3cccc4c3c(cn4C)C[C@H]21 ?
(A) 100 mg/kg

(Q) What does the record list as LD50 for Cc1cnc(NCC[C@@H]2C[C@@H]3c4cccc5c4c(cn5C)C[C@H]3N(C)C2)nc1 ?
(A) 130 mg/kg

----------
- Measurement Notes: LD50 (acute toxicity)
- Condition Notes: rat, in vivo, iv; rats, i.v.; read-out: LD50 i.v.
Outcome Measure: LD50 (mg/kg)
Respond numerically; units are mg/kg and should not be typed.

(Q) What does the record list as LD50 for CN1C[C@H](CCNc2ncccn2)C[C@@H]2c3cccc4c3c(cn4C)C[C@H]21 ?
(A) 18

(Q) What does the record list as LD50 for Cc1cnc(NCC[C@@H]2C[C@@H]3c4cccc5c4c(cn5C)C[C@H]3N(C)C2)nc1 ?
(A) 19

----------
- Test system: lethal effects caused by adrenaline
- Measurement Notes: adrenolytic activity in vivo: reduction of the lethal effects caused by adrenaline
- Condition Notes: po; rat, per os; 50% reduction of lethal effects caused by adrenaline; read-out: Adrenolytic Activity "in vivo" ED50 os
Outcome Measure: ED50

(Q) What does the record list as ED50 for CO[C@]12C[C@@H](CCNc3ncc(Br)cn3)CN(C)[C@@H]1Cc1cn(C)c3cccc2c13 ?
(A) > 1 mg/kg

(Q) What does the record list as ED50 for CO[C@]12C[C@@H](CCNc3ncc([N+](=O)[O-])cn3)CN(C)[C@@H]1Cc1cn(C)c3cccc2c13 ?
(A) 0.42 mg/kg

(Q) What does the record list as ED50 for Cc1cnc(NCC[C@@H]2C[C@@H]3c4cccc5c4c(cn5C)C[C@H]3N(C)C2)nc1 ?
(A) 0.5 mg/kg

(Q) What does the record list as ED50 for CN1C[C@H](CCNc2ncccn2)C[C@@H]2c3cccc4c3c(cn4C)C[C@H]21 ?
(A) 0.1 mg/kg
